This collection of values is drawn from PubChem BioAssay AID588726.

- TESTED_TARGET: Fructose-bisphosphate aldolase (Mycobacterium tuberculosis (strain ATCC 25618 / H37Rv))
- EXPERIMENTAL_PROTOCOL: Mtb FBA enzyme inhibitors, primary screen, biochemical, fluorescence, strain H37Rv (AID 588726)
- PROTOCOL_CONDITIONS: purified M. tuberculosis FBA, fluorescence read-out, at 1 µM
Out of some 360,000 compounds screened, about 8,200 (2.3%) were called active. Rule as the data show it: active = inhibition above about 27%; inactive = the rest. The full list was thinned out, with actives kept by preference.
Choose one outcome from this list and give only that: t = active, f = inactive

Sample answers from the record:
{"COMPOUND": "O=C(NNC(=O)c1ccco1)Nc1ccccc1", "ASSIGNED_CATEGORY": "f"}
{"COMPOUND": "CC(C)(C)NC(=O)c1cc(NC(=O)c2ccco2)cc(NC(=O)c2ccco2)c1", "ASSIGNED_CATEGORY": "f"}
{"COMPOUND": "COc1ccc(-c2csc3ncnc(Oc4ccc5c(C)cc(=O)oc5c4)c23)cc1", "ASSIGNED_CATEGORY": "f"}
{"COMPOUND": "CC(OC(=O)c1ccccc1NCCO)C(=O)Nc1ccnn1C(C)C (configuration not stated)", "ASSIGNED_CATEGORY": "t"}
{"COMPOUND": "O=C(NCc1ccc(F)cc1)c1cc(C2CCCCN2C(=O)C2CCCCC2)on1 (configuration not stated)", "ASSIGNED_CATEGORY": "f"}
{"COMPOUND": "O=C(Nc1ccc(F)c([N+](=O)[O-])c1)C1CC(=O)N(Cc2ccccc2)C1 (configuration not stated)", "ASSIGNED_CATEGORY": "f"}

Field: outcome | Entry: C[C@@H](C(=O)Nc1ccc2ccccc2c1)[C@@H]1C[C@@]1(C)[C@@H](NC(=O)c1cccnc1)c1ccccc1 f

Same again, this time with CCOC(=O)CNC(=O)CSc1ncccc1-c1nc2ccccc2[nH]1 f

###

- TESTED_TARGET: Fructose-bisphosphate aldolase (Mycobacterium tuberculosis (strain ATCC 25618 / H37Rv))
- EXPERIMENTAL_PROTOCOL: Mtb FBA enzyme inhibitors, primary screen, biochemical, fluorescence, strain H37Rv (AID 588726)
- PROTOCOL_CONDITIONS: purified M. tuberculosis FBA, fluorescence read-out, at 1 µM
In all, about 360,000 compounds went through this assay and about 8,200 (2.3%) were called active. No stated cut-off is given here; in the data, active means inhibition above about 27%; inactive means the rest. This is one part of a sample in which actives are shown more often than they occur.
Choose one outcome from this list and give only that: Yes = active, No = inactive

{"COMPOUND": "C=CCOc1ccc(/C=C/C(=O)OCC(=O)NCC2CCCO2)cc1 (stereo unspecified)", "TESTED_TARGET": "Fructose-bisphosphate aldolase (Mycobacterium tuberculosis (strain ATCC 25618 / H37Rv))", "ASSIGNED_CATEGORY": "No"}
{"COMPOUND": "Cc1ccc(C2CC(c3cccc(Br)c3)n3nc(N)nc3N2)cc1 (stereo unspecified)", "TESTED_TARGET": "Fructose-bisphosphate aldolase (Mycobacterium tuberculosis (strain ATCC 25618 / H37Rv))", "ASSIGNED_CATEGORY": "No"}
{"COMPOUND": "COC(=O)c1onc(-c2c(OC)cc(OC)cc2OC)c1C(=O)OC", "TESTED_TARGET": "Fructose-bisphosphate aldolase (Mycobacterium tuberculosis (strain ATCC 25618 / H37Rv))", "ASSIGNED_CATEGORY": "No"}
{"COMPOUND": "Cc1ccc(NC(=O)COC(=O)CN2CCSC2=O)cc1F", "TESTED_TARGET": "Fructose-bisphosphate aldolase (Mycobacterium tuberculosis (strain ATCC 25618 / H37Rv))", "ASSIGNED_CATEGORY": "No"}
{"COMPOUND": "CC1(C)CC(=O)c2cc(OCC(=O)NCC3CCCO3)ccc2O1 (stereo unspecified)", "TESTED_TARGET": "Fructose-bisphosphate aldolase (Mycobacterium tuberculosis (strain ATCC 25618 / H37Rv))", "ASSIGNED_CATEGORY": "Yes"}

Shifting focus to the compound that follows.
Field: outcome | Entry: CCN(CC(=O)Nc1cc(Cl)ccc1C)C(=O)CSCc1ccc(C)cc1 No
